Here, each record is paired with measured RAM network inhibition data.
experiment: RAM signaling pathway blockade in yeast – S. cerevisiae, Pdr1DBD-CYC8 efflux-inhibited sensitized strain, primary screen (AID 1298);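 further: 0% = DMSO untreated cells without growth and 100% = 10 µM 1-NA-PP1 full growth; higher means more yeast growth rescued from 5-FOA killing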; conditions: S. cerevisiae cbk1-as DSE1-URA3 strain, 5-FOA growth OD615, 2 d; at 50 µM; stronger effect = higher value
The figure you give is taken to be in %; do not add the unit.

Some solved cases for reference:
1. Cn1c(=O)c2cc(S(=O)(=O)NC(C(=O)NCc3cccnc3)c3ccccc3)ccc2n(C)c1=O (stereo unspecified)    1.81
2. CCCCCOc1ccc(NC(=O)CCCC(=O)O)cc1    1.02
3. COc1ccc(C2CC(=O)N3CN(c4ccc(C)c(Cl)c4)CSC3=C2C#N)cc1OC (stereo unspecified)    -1.09

Reported RAM network inhibition ( CCc1nn(CC(=O)NCCCN2CCCC2=O)c(=O)c2cc3sccc3n12 ) = 0.36

Please fill in: RAM network inhibition reported for COCCCN(C(=O)Nc1ccccc1)C(C)c1ccncc1 (stereo unspecified) = 3.28

The reported value for Cc1csc2ncc(C(=O)NCc3ccccn3)c(=O)n12 in terms of RAM network inhibition is 1.6

The value of RAM network inhibition measured for the molecule Cc1cc(Nc2ccc(F)cc2F)n2ncnc2n1 turned out to be 1.04

Field RAM network inhibition (entry COc1cccc(-n2c(Cc3cc(=O)[nH]c(=O)[nH]3)nnc2SCC(=O)NC2CCCC2)c1 ) reads -1.25
